B1: mRNA-splicing (parent)
chain: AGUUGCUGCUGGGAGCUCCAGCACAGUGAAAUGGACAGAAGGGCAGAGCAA

variants of: B1; test: exon inclusion enrichment index; higher = more inclusion; WT1 exon 5 minigene, HEK293
Classify as follows. Reported exon inclusion enrichment index greater than or equal to 0.2: YES. Reported exon inclusion enrichment index below: NO.

INSERT INTO results (sequenceentry, classname) VALUES
  ('AGUUGACGACGGGAGCUCCAGCACAGUGAAAUGGGGAGAAGGGCAGAGCAA', 'YES'),
  ('AGUUCGCUACGGGAGCUCCAGCACAGUGAAAUGGACAGAAGGGCAGAGCAA', 'YES'),
  ('AGUUAGGGAUGGGAGCUCCAGCACAGUGAAUAGGACAGAAGGGCAGAGCAA', 'NO'),
  ('AGUUUCUUUUGGGAGCUCCAGCACAGUGAAAUGGACAGAAGGGCUGAGCAA', 'YES'),
  ('AGUUACCACCGGGAGGGCCAGCACAGUGAAAUGGACAGAAGGGCAGAGCAA', 'YES'),
  ('AGUUACCAAGGGGAGCUCCAGCACAGUGAAAUGGACAGAAGGGCAGAGCAA', 'YES');

*Q* Check this variant for exon inclusion enrichment index at or above 0.2: "AGUUUCUUUUGGGAGGGCCAGCACAGUGAAAUGGACAGAAGGGCAGAGCAA"
*A* NO

*Q* Check this variant for exon inclusion enrichment index at or above 0.2: "AGUUCUUCUCGGGAGCUCCAGCACAGUGAAACGGACAGAAGGGCAGAGCAA"
*A* YES

*Q* Check this variant for exon inclusion enrichment index at or above 0.2: "AGUCCAAGAAGGGAGCUCCAGCACAGUGAAAUGGACAGAAGGGCAGAGCAA"
*A* YES

*Q* Check this variant for exon inclusion enrichment index at or above 0.2: "AGUUCACACAGGGAGCUCCAGCACAGUGAAAUGGAAAGAAGGGCAGAGCAA"
*A* NO

Values compiled from the RNAGym collection of RNA variant scans (doi:10.1101/gr.219683.116).
